- target entity: Metabotropic glutamate receptor 8 (Rattus norvegicus) (UniProt P70579)
- Sequence (P70579 whole entry, looked up): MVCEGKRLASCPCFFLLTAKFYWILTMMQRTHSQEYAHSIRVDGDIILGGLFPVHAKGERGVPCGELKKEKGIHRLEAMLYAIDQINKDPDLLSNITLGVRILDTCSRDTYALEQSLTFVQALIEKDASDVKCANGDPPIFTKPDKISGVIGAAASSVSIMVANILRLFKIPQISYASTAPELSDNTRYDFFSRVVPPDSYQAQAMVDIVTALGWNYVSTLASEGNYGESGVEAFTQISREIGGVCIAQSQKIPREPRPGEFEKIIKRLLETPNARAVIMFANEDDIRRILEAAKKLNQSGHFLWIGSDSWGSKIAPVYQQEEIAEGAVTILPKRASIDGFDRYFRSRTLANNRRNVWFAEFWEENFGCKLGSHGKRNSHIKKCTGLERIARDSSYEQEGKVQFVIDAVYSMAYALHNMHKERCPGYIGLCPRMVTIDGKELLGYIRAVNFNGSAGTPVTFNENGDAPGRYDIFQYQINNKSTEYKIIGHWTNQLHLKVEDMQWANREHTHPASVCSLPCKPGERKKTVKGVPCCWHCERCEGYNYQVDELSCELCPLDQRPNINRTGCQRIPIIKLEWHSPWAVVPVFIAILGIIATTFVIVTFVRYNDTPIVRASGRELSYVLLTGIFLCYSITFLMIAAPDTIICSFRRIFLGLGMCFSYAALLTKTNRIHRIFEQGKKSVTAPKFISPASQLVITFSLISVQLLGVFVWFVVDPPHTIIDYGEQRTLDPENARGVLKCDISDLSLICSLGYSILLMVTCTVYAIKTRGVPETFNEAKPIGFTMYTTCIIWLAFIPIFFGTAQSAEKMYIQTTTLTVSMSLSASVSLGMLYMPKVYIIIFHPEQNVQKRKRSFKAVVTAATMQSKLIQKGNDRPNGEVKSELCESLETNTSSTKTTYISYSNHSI
- test protocol: mGluR8 Gi/Go-coupled signaling modulation – cell-based, rat, thallium flux, HTS, primary screen (AID 488969)
- conditions: HEK293 rat mGluR8, GIRK thallium flux, FluoZin2; at 10 µM; stronger effect = higher value; submaximal glutamate (EC20) added with thallium
Whole data set: some 110,000 compounds, median “z-score” near -0.1, cut for the highest 2% near 2. Many of the other results were omitted from the sample, so the highest values are more common in it than they were.
Rule: Met for z-score not less than -0.03, Not met for anything less.

{"columns": ["compound", "target entity", "classification"],
 "data": [
  ["O=C(COC(=O)COc1ccccc1Cc1ccccc1)Nc1cccnc1Cl", "Metabotropic glutamate receptor 8 (Rattus norvegicus) (UniProt P70579)", "Not met"],
  ["CC(=O)Oc1ccc2c(c1)cc(C)n2C", "Metabotropic glutamate receptor 8 (Rattus norvegicus) (UniProt P70579)", "Met"],
  ["COc1ccc(C(=O)Nc2cc(OC)c(NC(=O)c3ccco3)cc2OC)cc1", "Metabotropic glutamate receptor 8 (Rattus norvegicus) (UniProt P70579)", "Not met"],
  ["CC(Oc1ccc(Cl)cc1)C(=O)NNC(=S)NC(=O)c1ccco1 (stereo not drawn)", "Metabotropic glutamate receptor 8 (Rattus norvegicus) (UniProt P70579)", "Met"],
  ["Cc1ccc(C(=O)Nc2nnc(-c3ccco3)o2)cc1C", "Metabotropic glutamate receptor 8 (Rattus norvegicus) (UniProt P70579)", "Met"],
  ["CC(Oc1ccc2ccccc2c1)C(=O)NNC(=S)NC(=O)c1ccco1 (stereo not drawn)", "Metabotropic glutamate receptor 8 (Rattus norvegicus) (UniProt P70579)", "Met"],
  ["O=c1oc2ccccc2c(Nc2cccc3ccccc23)c1[N+](=O)[O-]", "Metabotropic glutamate receptor 8 (Rattus norvegicus) (UniProt P70579)", "Not met"],
  ["O=C(Nc1ccc2nc(-c3ccc(Br)o3)[nH]c2c1)c1cccs1", "Metabotropic glutamate receptor 8 (Rattus norvegicus) (UniProt P70579)", "Not met"],
  ["Cc1ccc(C(=O)Nc2nnc(-c3ccco3)o2)cc1", "Metabotropic glutamate receptor 8 (Rattus norvegicus) (UniProt P70579)", "Met"],
  ["COc1ccc(N/C(C)=C2/C(=O)C(=O)N(CCO)C2c2ccc(Br)cc2)cc1 (stereo not drawn)", "Metabotropic glutamate receptor 8 (Rattus norvegicus) (UniProt P70579)", "Met"],
  ["O=C(Nc1ccccn1)C12CC3CC(C1)CC(C(=O)Nc1ccccn1)(C3)C2", "Metabotropic glutamate receptor 8 (Rattus norvegicus) (UniProt P70579)", "Met"],
  ["CC1CCCC(C)N1C(=O)CSc1nnc(NC(=O)Cc2cccs2)s1 (stereo not drawn)", "Metabotropic glutamate receptor 8 (Rattus norvegicus) (UniProt P70579)", "Not met"],
  ["COc1ccc(C(=O)NNC(=S)NC(=O)c2ccco2)cc1", "Metabotropic glutamate receptor 8 (Rattus norvegicus) (UniProt P70579)", "Met"],
  ["CC1Cc2ccccc2N1C(=O)CSc1nnc(CNc2ccccc2)o1 (stereo not drawn)", "Metabotropic glutamate receptor 8 (Rattus norvegicus) (UniProt P70579)", "Not met"],
  ["CCOC(=O)/C(=C/c1ccc(Cl)cc1)NC(=O)c1ccco1", "Metabotropic glutamate receptor 8 (Rattus norvegicus) (UniProt P70579)", "Not met"],
  ["O=C(Nc1nnc(-c2ccco2)o1)c1cccc2ccccc12", "Metabotropic glutamate receptor 8 (Rattus norvegicus) (UniProt P70579)", "Met"],
  ["N#C/C(=C\\c1ccc(Cl)cc1Cl)c1n[nH]c(Cn2cncn2)n1", "Metabotropic glutamate receptor 8 (Rattus norvegicus) (UniProt P70579)", "Not met"],
  ["COc1ccc(N/C(C)=C2/C(=O)C(=O)N(CCO)C2c2ccc([N+](=O)[O-])cc2)cc1 (stereo not drawn)", "Metabotropic glutamate receptor 8 (Rattus norvegicus) (UniProt P70579)", "Not met"],
  ["Cc1ccc2nc(-c3ccc(NC(=S)NC(=O)C(C)C)cc3)sc2c1", "Metabotropic glutamate receptor 8 (Rattus norvegicus) (UniProt P70579)", "Not met"],
  ["CC(C)CNC(=S)NNC(=O)c1ccco1", "Metabotropic glutamate receptor 8 (Rattus norvegicus) (UniProt P70579)", "Not met"],
  ["O=C(CCC(=O)Nc1ccccc1)NNC(=O)C(c1ccccc1)c1ccccc1", "Metabotropic glutamate receptor 8 (Rattus norvegicus) (UniProt P70579)", "Met"],
  ["COc1ccc(/C=C/C(=O)NC(=S)NNC(=O)c2ccco2)cc1", "Metabotropic glutamate receptor 8 (Rattus norvegicus) (UniProt P70579)", "Met"],
  ["C=CCOn1c(=O)c(-c2ccc(OC)c(OC)c2)[n+]([O-])c2ccccc21", "Metabotropic glutamate receptor 8 (Rattus norvegicus) (UniProt P70579)", "Not met"]
]}

###

- target entity: Metabotropic glutamate receptor 8 (Rattus norvegicus) (UniProt P70579)
- test protocol: mGluR8 Gi/Go-coupled signaling modulation – cell-based, rat, thallium flux, HTS, primary screen (AID 488969)
- conditions: HEK293 rat mGluR8, GIRK (G protein-gated inwardly rectifying potassium channel) thallium flux, FluoZin2; at 10 µM; stronger effect = higher value; submaximal glutamate (EC20) added with thallium
In all, about 110,000 compounds were measured (“z-score”: median about -0.1, highest 2% from about 2 on). This is one part of a sample in which the highest values are shown more often than they occur.
Each item that follows carries a reported z-score.
observed property: z-score

{"columns": ["compound", "value observed"],
 "data": [
  ["Cc1ccc(C)c(NC(=O)CCC(=O)NNC(=O)c2cccc([N+](=O)[O-])c2)c1", 0.265],
  ["COC(=O)c1sc(NC(=O)COc2cccc(C)c2)nc1C", -0.0129],
  ["CN(C)CCCNC(=O)c1ccc(-c2nc(-c3ccc(Cl)cc3)cs2)cc1", 3.28],
  ["Cc1[nH]c(=O)[nH]c(=O)c1NC(=O)c1sc2nc3c(C)cccc3cc2c1N", -0.256],
  ["O=C(NC(=S)N1CCN(c2ccc(C(F)(F)F)cc2[N+](=O)[O-])CC1)c1cccs1", 8.9],
  ["CCOc1cc(C2C(C#N)=C(N)Oc3n[nH]c(C)c32)ccc1OCCN1CCOCC1 (configuration not stated)", -0.102],
  ["Cc1nc(NC(=S)NC(=O)c2ccccc2)sc1C(=O)N(C)C", -0.185],
  ["CC(=O)Nc1ccc(S(=O)(=O)NC2(C(F)(F)F)NC(=O)N(C3CCCCC3)C2=O)cc1 (configuration not stated)", -0.0965],
  ["CNC(=S)N=Nc1c(O)[nH]c2ccc(C(C)C)cc12", 5.56],
  ["CCOC(=O)C1=C(C)C2C3C(=O)N(c4ccccc4C)C(=O)C3C1(C)C1C(=O)N(c3ccccc3C)C(=O)C21 (configuration not stated)", -0.246],
  ["C=CCNC(=O)c1ccc(-c2nc(-c3ccc(Cl)c(Cl)c3)cs2)cc1", -0.148],
  ["CCCCn1c(CN2CCN(c3ccc(F)cc3)CC2)nc2c1c(=O)n(C)c(=O)n2C", -0.751],
  ["O=C(C1CCC(=O)N1Cc1ccccc1Cl)N1CCN(c2cccc(Cl)c2)CC1 (configuration not stated)", -0.174],
  ["CCOC(=O)C1=C(C)N(c2ccc(OC)cc2)C(=O)/C1=C\\c1cccs1", -0.132],
  ["N#C/C(=C/c1cn(-c2ccccc2)nc1-c1cccc(S(=O)(=O)N2CCOCC2)c1)C(=O)NCc1ccco1", -0.112],
  ["Cc1ccc(-c2cc(-c3cccs3)[nH]n2)c(O)c1", 2.77],
  ["O=C1C(C=NCc2ccccn2)=C(O)c2ccccc21", -0.00613],
  ["Cc1ccc(C(=O)O)cc1S(=O)(=O)N1CCC(C(=O)O)CC1", 0.299],
  ["COc1ccccc1C(=O)Nc1ccc2c(c1)OCO2", 0.246],
  ["Cc1cccc(C(=O)Nc2nc(C)c(C(=O)Nc3ccc4c(c3)CCC4)s2)c1", -0.0981],
  ["CCOC(=O)c1sc(NC(=O)COC(=O)c2ccco2)nc1C", 0.0458],
  ["Cc1ccc2[nH]c(=O)c(C(c3nnnn3C(C)(C)C)N3CCN(C(=O)c4ccco4)CC3)cc2c1 (configuration not stated)", -0.0115],
  ["O=C(Nc1ccc(Cl)c(Cl)c1)Nc1nnc(CC2=CCCCC2)s1", 0.0021],
  ["Cc1cc(N/C=C\\c2nnnn2-c2ccccc2)no1", -0.374],
  ["O=C(Nc1ccccc1N1CCOCC1)C1CCN(S(=O)(=O)c2cccc(C(F)(F)F)c2)CC1", -0.294],
  ["O=C(NC(=S)N1CCN(c2ccc([N+](=O)[O-])cc2Cl)CC1)c1ccco1", 1.05],
  ["CCCCNC(=O)Nc1ccccc1C(=O)NCc1ccco1", 0.486],
  ["Cc1ccc(C(=O)O)cc1S(=O)(=O)N1CCOCC1", -0.267],
  ["CCOC(=O)c1sc(NC(=O)c2ccco2)nc1-c1ccccc1", 0.0322],
  ["CCOc1ccc(N=CC2=C(O)CC(C)(C)CC2=O)cc1", 0.649],
  ["COC(=O)c1sc(NC(=S)NC(=O)c2cccc(C)c2)nc1C", 4.51],
  ["O=C(COc1ccc2c(c1)CCC2)N1CCN(c2cccc(C(F)(F)F)c2)CC1", -0.0515],
  ["COc1cc2cc3c(N)c(C(=O)Nc4sc(C)c(C)c4C#N)sc3nc2cc1OC", 0.0438],
  ["O=C(Nc1ccc(N2CCOCC2)cc1)C1CCCN(S(=O)(=O)c2cccc(C(F)(F)F)c2)C1 (configuration not stated)", 2.63],
  ["O=C(NC(=S)N1CCN(c2ccc(Cl)cc2[N+](=O)[O-])CC1)c1cccs1", 9.46],
  ["Cc1sc(NC(=O)c2sc3nc4c(C)cccc4cc3c2N)c(C#N)c1C", 2.37],
  ["CN(c1ccccc1C(=O)Nc1cccc(Cl)c1Cl)S(C)(=O)=O", 0.0249],
  ["Cc1ccc(S(=O)(=O)n2cnc3cc([N+](=O)[O-])ccc32)cc1C", 2.81],
  ["O=C(Nc1cc(C(F)(F)F)ccc1N1CCOCC1)c1cccs1", 1.15],
  ["N#C/C(=C\\c1ccccc1)C(=O)Nc1cc(S(=O)(=O)N2CCOCC2)ccc1N1CCCC1", -0.0157],
  ["COC(=O)c1sc(Nc2ccccc2)nc1C", -0.75],
  ["CC1(C)Cc2nc3sc4c(SCC(=O)NCc5ccccc5)ncnc4c3cc2CO1", 2.31]
]}
